# tgt: human V1a receptor (Homo sapiens)
# Construct: expressed in transfected cells; host or cells: HEK293 cells, transiently transfected; cell membranes prepared
# Sequence (P37288 whole entry): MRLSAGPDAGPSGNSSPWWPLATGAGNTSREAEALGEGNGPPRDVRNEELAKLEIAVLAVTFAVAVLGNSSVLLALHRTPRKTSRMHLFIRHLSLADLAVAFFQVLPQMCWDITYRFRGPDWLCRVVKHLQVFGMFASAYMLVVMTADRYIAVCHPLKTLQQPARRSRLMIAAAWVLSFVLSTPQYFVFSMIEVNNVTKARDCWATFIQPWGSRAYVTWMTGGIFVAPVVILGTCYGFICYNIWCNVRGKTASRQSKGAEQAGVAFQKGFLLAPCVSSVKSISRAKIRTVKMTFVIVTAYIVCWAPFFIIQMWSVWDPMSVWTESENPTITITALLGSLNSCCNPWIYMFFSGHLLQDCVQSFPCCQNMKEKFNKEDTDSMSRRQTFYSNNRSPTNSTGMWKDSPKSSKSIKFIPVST
# procedure text: human V1a receptor binding study (3H-Vasopressin, SPA beads, HEK293 membranes)
# setup conditions: membranes of HEK293 cells transiently transfected with human V1a receptor; 3H-Vasopressin; Ki calculated using the Cheng-Prussoff equation; read-out: pKi (hV1a) (converted)
Counter-ions that a name gives are not always drawn.
endpoint: Ki (nM)
Give bare numbers, in nM.

The cases that follow already have their Ki on record.
In [3]: df
Out[3]:
                                   molecule  endpoint  endpoint_value
0  COCC(C)O[C@H]1CC[C@H](c2nnc3n2-c2ccc(Cl)cc2CN(C(=O)OC(C)(C)C)C3)CC1 (mixture of isomers)        Ki            3.72
1  Clc1ccc2c(c1)CNCc1nnc([C@H]3CC[C@H](OC4CCCCC4)CC3)n1-2 [Example 40, hydrochloride]        Ki            34.7
2  CC(C)O[C@H]1CC[C@H](c2nnc3n2-c2ccc(Cl)cc2CN(C(=O)OC(C)(C)C)C3)CC1        Ki            1.29
3  CN1Cc2cc(Cl)ccc2-n2c(nnc2[C@H]2CC[C@@H](OC3CCOCC3)CC2)C1        Ki              17
4  COCC(C)O[C@H]1CC[C@H](c2nnc3n2-c2ccc(Cl)cc2CNC3)CC1 (mixture of isomers) [Example 46, hydrochloride]        Ki             117
5  CC(CF)O[C@H]1CC[C@H](c2nnc3n2-c2ccc(Cl)cc2CN(C)C3)CC1 (mixture of isomers)        Ki            2.82

Go through the list and state Ki for each entry.
1. CC(C)O[C@H]1CC[C@H](c2nnc3n2-c2ccc(F)cc2CN(C(=O)OC(C)(C)C)C3)CC1
2. COC[C@H](C)O[C@H]1CC[C@H](c2nnc3n2-c2ccc(Cl)cc2CN(C)C3)CC1 (stereo in doubt)
3. CC(C)O[C@H]1CC[C@H](c2nnc3n2-c2ccc(Cl)cc2CN(C(=O)CO)C3)CC1
4. COCC(C)O[C@H]1CC[C@H](c2nnc3n2-c2ccc(Cl)cc2CN(C)C3)CC1 (mixture of isomers)

Output:
1. 3.8
2. 47.9
3. 3.47
4. 11.2
